Test system: NCI-H460 lung
PROCEDURE TEXT: NCI-60 one-dose screen, 48 h
CONDITION PARAMETERS: 10 µM unless noted
About 83,000 compounds went through this panel and 20% of them were active in at least one assay; those are over-represented in the sample as a whole. The source made the active and inactive calls. How the source made its calls: active means growth percent below 10; inactive means the rest.
A correct response names exactly one class from Y for active, N for inactive

// known answers, use as guide
COc1cc(OC)c(C(=O)/C=C/c2cccc(C#N)c2)c(OC)c1 = Y
CCOC(=O)C(Cc1ccccc1)n1c(O)c(C=Nc2ccc(C(=O)OCCN(CC)CC)cc2)sc1=O (centres undefined) = N

Query: In this assay, the call recorded for CCOC(=O)/C=C\C(=O)NC(N)=O was what?
Reply: N

Query: Same lookup for CCN(CC)c1cc(/C=C/c2ccc(OC)c(OC)c2)nc2cc(F)c(F)cc12 , please.
Reply: N

Query: Same lookup for COc1ccc([N+](=O)[O-])c(/C=C/C(=O)c2ccccn2)c1 , please.
Reply: N

----------
Tested on: SR leukemia
PROCEDURE TEXT: NCI-60 one-dose screen, 48 h (100 = growth as untreated, 0 = no growth, -100 = all killed)
CONDITION PARAMETERS: 10 µM unless noted
About 83,000 compounds went through this panel and 20% of them were active in at least one assay; those are over-represented in the sample as a whole.
Each entry below lists one item and its recorded growth value.
Give the number; % is assumed, so skip it.

COc1ccc(-c2nc3sccn3c2-c2ccnc(NCCCNS(=O)(=O)c3ccc(F)cc3)n2)cc1 = 14.8
COc1cc(CCn2nnc3c(NCCCCO)ncnc32)cc(OC)c1 = 96.4
C/C1=C\CCC2(C)OC2CC2CCC(C)(O)C(CC1)C2(C)C (stereo unspecified) = 92.4
CC(=O)/C=C/c1cc2cc(Cl)ccc2[nH]c1=O = 5.65
Nc1c(C(=O)Nc2cccc(C(F)(F)F)c2)sc2nc3c(cc12)CCCCC3 = 33.3

Query: // returns reported growth for input Cc1cc(N/C=c2\sc3ncnn3c2=O)no1
Reply: 74.8

Query: Same lookup for O=C(NNC(=S)Nc1ccccc1)c1ccccn1 , please.
Reply: 9.67

Query: Same lookup for COc1cc(CNC(=O)CSc2nc3ccccc3c(=O)n2Cc2cc(OC)c(OC)c(OC)c2)cc(OC)c1OC , please.
Reply: 123

Query: Same lookup for COc1ccccc1OCC(=O)Nc1sc2c(c1C(N)=O)CCC2 , please.
Reply: 65.2

Query: Same lookup for Cc1ccc(S(=O)(=O)OCC(=O)Nc2ccc(C(=O)O)c(O)c2)cc1 , please.
Reply: 45.7

----------
Tested on: HOP-62 NSCLC
PROCEDURE TEXT: NCI-60 one-dose screen, 48 h (100 = growth as untreated, 0 = no growth, -100 = all killed)
CONDITION PARAMETERS: 10 µM unless noted
About 83,000 compounds went through this panel and 20% of them were active in at least one assay; those are over-represented in the sample as a whole.
Each record is given TRUE if its reported growth is strictly below 30%. Records at or above 30% are given FALSE.

// known answers, use as guide
NC(C(=O)O)C(O)c1ccc(OCc2ccccc2)c(OCc2ccccc2)c1 (stereo not given) = FALSE
COc1cc(/C=C/C(=O)c2ccccc2O)ccc1OCCCOc1cc2c(cc1OC)C(=O)N1CCC[C@H]1C=N2 = TRUE

Query: Given c1ccc([P+](CCC[P+](c2ccccc2)(c2ccccc2)c2ccccc2)(c2ccccc2)c2ccccc2)cc1 , is recorded growth strictly lower than 30%?
Reply: FALSE

Query: Same lookup for O=C(O)c1cccc([N+](=O)[O-])c1/C=C/c1ccccc1 , please.
Reply: FALSE

Query: Same lookup for Cc1oc2ncnc(Nc3ccccc3)c2c1C(=O)NCCO , please.
Reply: FALSE

Ref: PubChem BioAssay (NCI)
